assay-comment: Microsomal stability, human liver microsomes (predicted hepatic clearance)
condition-info: predicted from in vitro microsomal stability data

- smiles-str: "N#Cc1ccc(COc2cccc(-c3ccc(Cc4nc5c(F)cc(C(=O)O)cc5n4C[C@@H](O)CCO)cc3F)n2)c(F)c1"
  units-label: "mL/min/kg"
  reading-qualifier: "="
  Predicted Hepatic Clearance (Pred. Cl.): 4
- smiles-str: "COc1cc(C#N)ccc1COc1nccc(-c2ccc(Cc3nc4ccc(C(=O)O)nc4n3CC3(CF)CC3)cc2F)n1"
  units-label: "mL/min/kg"
  reading-qualifier: "="
  Predicted Hepatic Clearance (Pred. Cl.): 12.3
- smiles-str: "COCCn1c(Cc2ccc(-c3cccc(OCc4ccc(C#N)cc4F)n3)cc2C#CC2CC2)nc2ccc(C(=O)O)cc21"
  units-label: "mL/min/kg"
  reading-qualifier: "="
  Predicted Hepatic Clearance (Pred. Cl.): 5.83
- smiles-str: "N#Cc1ccc(COc2ncccc2-c2cc(F)c(Cc3nc4ccc(C(=O)O)cc4n3CC3(CF)CC3)c(F)c2)c(F)c1"
  units-label: "mL/min/kg"
  reading-qualifier: "<"
  Predicted Hepatic Clearance (Pred. Cl.): 1.83

* * *

Overview of recorded Predicted Hepatic Clearance (Pred. Cl.) for various compounds
assay-comment: Microsomal stability, human liver microsomes (predicted hepatic clearance)
condition-info: predicted from in vitro microsomal stability data

- smiles-str: "COCCn1c(Cc2ccc(-c3cccc(OCc4ccccc4C(F)F)n3)cc2F)nc2ccc(C(=O)O)cc21"
  Predicted Hepatic Clearance (Pred. Cl.) [mL/min/kg]: 19.2
- smiles-str: "CCOC(=O)c1ccc2nc(Cc3cc(F)c(-c4cccc(OCc5ccc(C#N)cc5F)n4)cc3F)n(CCOC)c2c1"
  Predicted Hepatic Clearance (Pred. Cl.) [mL/min/kg]: 6
- smiles-str: "N#CCC1(Cn2c(Cc3ccc(-c4cccc(OCc5ccc(C#N)cc5F)n4)c(F)c3)nc3c(F)cc(C(=O)O)cc32)CC1"
  Predicted Hepatic Clearance (Pred. Cl.) [mL/min/kg]: 10.5
- smiles-str: "N#Cc1ccc(COc2nccc(-c3ccc(Cc4nc5c(F)cc(C(=O)O)cc5n4C[C@@H]4CCO4)c(F)c3)n2)c(F)c1"
  Predicted Hepatic Clearance (Pred. Cl.) [mL/min/kg]: 3.83
- smiles-str: "COCCn1c(Cc2ccc(-c3cccc(OCc4ccc(C#N)cc4F)n3)cc2F)nc2ccc(P(=O)(O)O)cc21"
  Predicted Hepatic Clearance (Pred. Cl.) [mL/min/kg]: 1.83
- smiles-str: "N#Cc1ccc(COc2cccc(-c3ccc(Cc4nc5ccc(C(=O)O)cc5n4C[C@H]4CCCO4)c(F)c3)n2)c(F)c1"
  Predicted Hepatic Clearance (Pred. Cl.) [mL/min/kg]: 5.17
- smiles-str: "COCCn1c(Cc2ccc(-c3cccc(OCc4ccc(C#N)cc4F)n3)cc2-c2cccnc2)nc2ccc(C(=O)O)cc21"
  Predicted Hepatic Clearance (Pred. Cl.) [mL/min/kg]: 12
- smiles-str: "COCCn1c(Cc2ccc(-c3cccc(OCc4cc(C(C)C)ccc4F)n3)cc2F)nc2ccc(C(=O)O)cc21"
  Predicted Hepatic Clearance (Pred. Cl.) [mL/min/kg]: 5.5
- smiles-str: "COCCn1c(Cc2ccc(-c3cc(C(F)(F)F)cc(OCc4ccc(C#N)cc4F)n3)cc2F)nc2ccc(C(=O)O)cc21"
  Predicted Hepatic Clearance (Pred. Cl.) [mL/min/kg]: 10
- smiles-str: "COCCn1c(Cc2cc(F)c(-c3cccc(OCc4ccc(C5=CCNCC5)cc4F)n3)cc2F)nc2ccc(C(=O)O)cc21"
  Predicted Hepatic Clearance (Pred. Cl.) [mL/min/kg]: 4.5
- smiles-str: "O=C(O)c1ccc2nc(Cc3cc(F)c(-c4cccc(OCc5ccc(C(F)F)cc5F)n4)cc3F)n(CC3(CF)CC3)c2c1"
  Predicted Hepatic Clearance (Pred. Cl.) [mL/min/kg]: 1.83
- smiles-str: "COCCn1c(Cc2ccc(-c3cccc(OCc4ccc(C#N)cc4F)n3)cc2)nc2ccc(C(=O)O)cc21"
  Predicted Hepatic Clearance (Pred. Cl.) [mL/min/kg]: 3.3
- smiles-str: "O=C(O)c1ccc2nc(Cc3cc(F)c(-c4cccc(OCc5ccc(Cl)cc5)n4)cc3F)n(Cc3ncco3)c2c1"
  Predicted Hepatic Clearance (Pred. Cl.) [mL/min/kg]: 3.17
- smiles-str: "COCC1(n2c(Cc3ccc(-c4cccc(OCc5ccc(C#N)cc5F)n4)cc3F)nc3ccc(C(=O)O)cc32)CC1"
  Predicted Hepatic Clearance (Pred. Cl.) [mL/min/kg]: 3.17

* * *

assay-comment: Microsomal stability, human liver microsomes (predicted hepatic clearance)
condition-info: predicted from in vitro microsomal stability data
Overview of recorded Predicted Hepatic Clearance (Pred. Cl.) for various compounds
quantity-measured: Predicted Hepatic Clearance (Pred. Cl.) (L/h/kg)

- compound: "O=C(O)c1cc(F)c2nc(Cc3cc(F)c(-c4cccc(OCc5ccc(C(F)F)cc5F)n4)cc3F)n(C[C@@H]3CCO3)c2c1"
  quantity-measured: "Predicted Hepatic Clearance (Pred. Cl.)"
  reading-qualifier: "="
  assay-result: 0.30
- compound: "COCCn1c(Cc2cc(F)c(-c3ccnc(OCc4ccc(C#N)cc4F)n3)cc2F)nc2ccc(C(=O)O)cc21"
  quantity-measured: "Predicted Hepatic Clearance (Pred. Cl.)"
  reading-qualifier: "<"
  assay-result: 0.11
- compound: "CO[C@H]1CC[C@@H]1n1c(Cc2cc(F)c(-c3cccc(OCc4ccc(C#N)cc4F)n3)cc2F)nc2ccc(C(=O)O)cc21"
  quantity-measured: "Predicted Hepatic Clearance (Pred. Cl.)"
  reading-qualifier: "="
  assay-result: 0.23
- compound: "COCCn1c(Cc2ccc(-c3cccc(OCc4ccncc4OC)n3)c(F)c2)nc2ccc(C(=O)O)cc21"
  quantity-measured: "Predicted Hepatic Clearance (Pred. Cl.)"
  reading-qualifier: "="
  assay-result: 1.07
- compound: "COCCn1c(Cc2ccc(-c3nc(OCc4ccc(C#N)cc4F)ccc3C)cc2)nc2ccc(C(=O)O)cc21 (single isomer, unassigned)"
  quantity-measured: "Predicted Hepatic Clearance (Pred. Cl.)"
  reading-qualifier: "="
  assay-result: 0.83
- compound: "O=C(O)c1cc(F)c2nc(Cc3cc(F)c(-c4cccc(OCc5ccc(C(F)F)cc5F)n4)cc3F)n(CC34CC(CO3)C4)c2c1"
  quantity-measured: "Predicted Hepatic Clearance (Pred. Cl.)"
  reading-qualifier: "="
  assay-result: 0.11
- compound: "O=C(O)c1ccc2nc(Cc3cc(F)c(-c4cccc(OCc5ccc(Cl)cc5F)n4)cc3F)n(C[C@@H]3CCO3)c2c1"
  quantity-measured: "Predicted Hepatic Clearance (Pred. Cl.)"
  reading-qualifier: "="
  assay-result: 0.11
- compound: "COCCn1c(Cc2cc(F)c(-c3ccnc(OCc4ccc(C(F)F)cc4F)n3)cc2F)nc2c(F)cc(C(=O)O)cc21"
  quantity-measured: "Predicted Hepatic Clearance (Pred. Cl.)"
  reading-qualifier: "="
  assay-result: 0.11
- compound: "COCCn1c(Cc2ccc(-c3cccc(OCc4ccccc4COC)n3)cc2F)nc2ccc(C(=O)O)cc21"
  quantity-measured: "Predicted Hepatic Clearance (Pred. Cl.)"
  reading-qualifier: "="
  assay-result: 1.09
- compound: "N#Cc1ccc(COc2cccc(-c3cc(F)c(Cc4nc5ccc(C(=O)O)c(F)c5n4C[C@@H]4CCO4)cc3F)n2)c(F)c1"
  quantity-measured: "Predicted Hepatic Clearance (Pred. Cl.)"
  reading-qualifier: "="
  assay-result: 0.11
- compound: "COC1(Cn2c(Cc3cc(F)c(-c4cccc(OCc5ccc(C#N)cc5F)n4)cc3F)nc3ccc(C(=O)O)cc32)CN(S(C)(=O)=O)C1"
  quantity-measured: "Predicted Hepatic Clearance (Pred. Cl.)"
  reading-qualifier: "="
  assay-result: 0.62
- compound: "O=C(O)c1ccc2nc(Cc3cc(F)c(-c4nc(OCc5ccc(C(F)F)cc5F)ncc4F)cc3F)n(C[C@@H]3CCO3)c2c1"
  quantity-measured: "Predicted Hepatic Clearance (Pred. Cl.)"
  reading-qualifier: "="
  assay-result: 0.43
- compound: "N#Cc1ccc(COc2cccc(-c3ccc(Cc4nc5ccc(C(=O)O)cc5n4CC4(c5cccnc5)CC4)c(F)c3)n2)c(F)c1"
  quantity-measured: "Predicted Hepatic Clearance (Pred. Cl.)"
  reading-qualifier: "="
  assay-result: 0.57

* * *

assay-comment: Microsomal stability, human liver microsomes (predicted hepatic clearance)
condition-info: predicted from in vitro microsomal stability data

- molecule: "COCCn1c(Cc2ccc(-c3cccc(OCc4ccc(C(F)(F)F)cc4F)n3)cc2F)nc2ccc(C(=O)O)cc21"
  units-label: "mL/min/kg"
  reading-qualifier: "<"
  Predicted Hepatic Clearance (Pred. Cl.): 1.83
- molecule: "COCCn1c(Cc2cnc(-c3cccc(OCc4ccc(C#N)cc4F)n3)nc2)nc2ccc(C(=O)O)cc21"
  units-label: "mL/min/kg"
  reading-qualifier: "="
  Predicted Hepatic Clearance (Pred. Cl.): 3
- molecule: "N#Cc1ccc(COc2cccc(-c3ccc(Cc4nc5ccc(C(=O)O)cc5n4Cc4cncnc4)c(F)c3)n2)c(F)c1"
  units-label: "mL/min/kg"
  reading-qualifier: "<"
  Predicted Hepatic Clearance (Pred. Cl.): 1.83
- molecule: "COCCn1c(Cc2ccc(-c3cccc(OCc4ccc(C#N)cc4F)n3)c(F)c2C#N)nc2ccc(C(=O)O)cc21"
  units-label: "mL/min/kg"
  reading-qualifier: "="
  Predicted Hepatic Clearance (Pred. Cl.): 5.42
- molecule: "COCCn1c(Cc2ccc(-c3cccc(OCc4ccc(C(F)(F)F)cc4OC)n3)cc2F)nc2ccc(C(=O)O)cc21"
  units-label: "mL/min/kg"
  reading-qualifier: "<"
  Predicted Hepatic Clearance (Pred. Cl.): 1.83
- molecule: "CC(=O)N1CC2CC1(Cn1c(Cc3cc(F)c(-c4cccc(OCc5ccc(C#N)cc5F)n4)cc3F)nc3ccc(C(=O)O)cc31)C2"
  units-label: "mL/min/kg"
  reading-qualifier: "="
  Predicted Hepatic Clearance (Pred. Cl.): 5.33
- molecule: "N#Cc1ccc(COc2cccc(-c3ccc(Cc4nc5ccc(C(=O)O)cc5n4CC4(C5CC5)CC4)c(F)c3)n2)c(F)c1"
  units-label: "mL/min/kg"
  reading-qualifier: "<"
  Predicted Hepatic Clearance (Pred. Cl.): 1.83
- molecule: "O=C(O)c1ccc2nc(Cc3cc(F)c(-c4cccc(OCc5ccc(C(F)F)cc5F)n4)cc3F)n(Cc3ccon3)c2c1"
  units-label: "mL/min/kg"
  reading-qualifier: "="
  Predicted Hepatic Clearance (Pred. Cl.): 1.83
- molecule: "COCCn1c(Cc2ccc(-c3cccc(O[C@H](C)c4ccccc4)n3)cc2F)nc2ccc(C(=O)O)cc21"
  units-label: "mL/min/kg"
  reading-qualifier: "="
  Predicted Hepatic Clearance (Pred. Cl.): 7.5
- molecule: "COCCn1c(Cc2ccc(-c3cccc(OCc4ccc(C#N)c5ccccc45)n3)cc2F)nc2ccc(C(=O)O)cc21"
  units-label: "mL/min/kg"
  reading-qualifier: "<"
  Predicted Hepatic Clearance (Pred. Cl.): 1.83
- molecule: "N#Cc1ccc(COc2cccc(-c3cc(F)c(Cc4nc5ccc(C(=O)O)cc5n4CC4(F)COC4)cc3F)n2)c(F)c1"
  units-label: "mL/min/kg"
  reading-qualifier: "="
  Predicted Hepatic Clearance (Pred. Cl.): 4.5
- molecule: "COCCn1c(Cc2cc(F)c(-c3nc(OCc4ccc(C(F)F)cc4F)ccc3F)cc2F)nc2ccc(C(=O)O)cc21"
  units-label: "mL/min/kg"
  reading-qualifier: "="
  Predicted Hepatic Clearance (Pred. Cl.): 4
- molecule: "COCCn1c(Cc2ccc(-c3cccc(OCc4ccc(C#N)cc4OC4CC4)n3)cc2F)nc2ccc(C(=O)O)cc21"
  units-label: "mL/min/kg"
  reading-qualifier: "="
  Predicted Hepatic Clearance (Pred. Cl.): 7.83
- molecule: "CC1(C)CC(Cn2c(Cc3ccc(-c4cccc(OCc5ccc(C#N)cc5F)n4)cc3F)nc3ccc(C(=O)O)cc32)O1 (centres unmarked) [Example 263]"
  units-label: "mL/min/kg"
  reading-qualifier: "="
  Predicted Hepatic Clearance (Pred. Cl.): 7
- molecule: "CC(=O)N1CC[C@@H]1Cn1c(Cc2ccc(-c3cccc(OCc4ccc(C#N)cc4F)n3)cc2F)nc2ccc(C(=O)O)cc21"
  units-label: "mL/min/kg"
  reading-qualifier: "="
  Predicted Hepatic Clearance (Pred. Cl.): 2.5
- molecule: "COCCn1c(Cc2ccc(-c3cccc(OCc4ccc(C#N)cc4F)n3)cc2F)nc2ccc(CC(=O)O)cc21"
  units-label: "mL/min/kg"
  reading-qualifier: "="
  Predicted Hepatic Clearance (Pred. Cl.): 2
- molecule: "COCCn1c(Cc2c(F)cc(-c3cccc(OCc4ccc(Cl)nc4)n3)cc2F)nc2ccc(C(=O)O)cc21"
  units-label: "mL/min/kg"
  reading-qualifier: "="
  Predicted Hepatic Clearance (Pred. Cl.): 3.5
- molecule: "CC1(Cn2c(Cc3ccc(-c4cccc(OCc5ccc(C#N)cc5F)n4)cc3F)nc3ccc(C(=O)O)cc32)CC1"
  units-label: "mL/min/kg"
  reading-qualifier: "<"
  Predicted Hepatic Clearance (Pred. Cl.): 1.83
- molecule: "COC(Cn1c(Cc2ccc(-c3cccc(OCc4ccc(C#N)cc4F)n3)cc2F)nc2ccc(C(=O)O)cc21)C(=O)O (single isomer, unassigned) [Example 332]"
  units-label: "mL/min/kg"
  reading-qualifier: "<"
  Predicted Hepatic Clearance (Pred. Cl.): 1.83
- molecule: "N#Cc1cc(F)c(COc2nccc(-c3cc(F)c(Cc4nc5ccc(C(=O)O)cc5n4C[C@@H]4CCO4)cc3F)n2)cc1F"
  units-label: "mL/min/kg"
  reading-qualifier: "="
  Predicted Hepatic Clearance (Pred. Cl.): 1.83
- molecule: "COCCn1c(Cc2cc(F)c(-c3cccc(OCc4ccc(OC)nc4)n3)cc2F)nc2ccc(C(=O)O)cc21"
  units-label: "mL/min/kg"
  reading-qualifier: "="
  Predicted Hepatic Clearance (Pred. Cl.): 8.17
- molecule: "COC[C@H](CF)n1c(Cc2cc(F)c(-c3cccc(OCc4ccc(C#N)cc4F)n3)cc2F)nc2ccc(C(=O)O)cc21"
  units-label: "mL/min/kg"
  reading-qualifier: "="
  Predicted Hepatic Clearance (Pred. Cl.): 5.5
- molecule: "N#Cc1ccc(COc2cccc(-c3cc(F)c(Cc4nc5c(F)cc(C(=O)O)cc5n4C[C@@H]4CCCO4)cc3F)n2)c(F)c1"
  units-label: "mL/min/kg"
  reading-qualifier: "="
  Predicted Hepatic Clearance (Pred. Cl.): 2.83
